Assay: Biodistribution of 99mTc(N)(X)(DTC)+ heterocomplexes in rats
Format: in vivo, male Spraque-Dawley rats (SD rats)
Conditions: 1 hr after injection
Procedure: The biodistribution of a ^99mTc nitride heterocomplex represented by the general formula ^99mTc(N)(X)(Y) was investigated as follows: ^99mTc nitride heterocomplexes were synthesized using DTC as a bidentate ligand Y and each of the diphosphine compounds X described below, and the biodistribution in rats of each heterocomplex was investigated. […] The biodistribution was measured using male Spraque-Dawley rats (SD rats) weighing 200 to 250 g. […]
RESULT_TYPE: Liver % dose/g (% dose/g)
Only the number, expressed in % dose/g, is required.

// below: answered compounds
compound="COCCN1CC[P+](c2ccccc2)(c2ccccc2)[99Tc-2]2(#[N])([NH]N(C)C(SC)=[S+]2)[P+](c2ccccc2)(c2ccccc2)CC1 [^99mTc(N)(PNP2)(DTC)^+]" unit_text="% dose/g" value_observed=7.436
compound="COCCC[P]1(CCCOC)CCN(CCOC)CC[P](CCCOC)(CCCOC)[99Tc+]12(#[N])[NH]N(C)C(SC)=[S]2 [^99mTc(N)(PNP3)(DTC)^+]" unit_text="% dose/g" value_observed=0.500
compound="CCCN1CC[P+](c2ccccc2)(c2ccccc2)[99Tc-2]2(#[N])([NH]N(C)C(SC)=[S+]2)[P+](c2ccccc2)(c2ccccc2)CC1 [^99mTc(N)(PNP1)(DTC)^+]" unit_text="% dose/g" value_observed=5.116

Shifting focus to the compound that follows.
// query Specify Liver % dose/g for CSC1=[S+][99Tc-2]2(#[N])([NH]N1C)[P+](c1ccccc1)(c1ccccc1)CCOCC[P+]2(c1ccccc1)c1ccccc1 [^99mTc(N)(POP)(DTC)^+] and stop.
// result 5.128

----------
Assay: Biodistribution of 99mTc(N)(X)(DTC)+ heterocomplexes in rats
Assay type: in vivo, male Spraque-Dawley rats (SD rats)
Details: 2 min after injection
RESULT_TYPE: Heart % dose/g

// below: answered molecules
molecule="CSC1=[S+][99Tc-2]2(#[N])([NH]N1C)[P+](c1ccccc1)(c1ccccc1)CCOCC[P+]2(c1ccccc1)c1ccccc1 [^99mTc(N)(POP)(DTC)^+]" value_observed="0.73 ± 0.07 % dose/g"
molecule="COCCC[P]1(CCCOC)CCN(CCOC)CC[P](CCCOC)(CCCOC)[99Tc+]12(#[N])[NH]N(C)C(SC)=[S]2 [^99mTc(N)(PNP3)(DTC)^+]" value_observed="3.007 ± 0.16 % dose/g"
molecule="COCCN1CC[P+](c2ccccc2)(c2ccccc2)[99Tc-2]2(#[N])([NH]N(C)C(SC)=[S+]2)[P+](c2ccccc2)(c2ccccc2)CC1 [^99mTc(N)(PNP2)(DTC)^+]" value_observed="0.728 ± 0.04 % dose/g"

Shifting focus to the molecule that follows.
// query Specify Heart % dose/g for CCCN1CC[P+](c2ccccc2)(c2ccccc2)[99Tc-2]2(#[N])([NH]N(C)C(SC)=[S+]2)[P+](c2ccccc2)(c2ccccc2)CC1 [^99mTc(N)(PNP1)(DTC)^+] and stop.
// result 0.824 ± 0.01 % dose/g

----------
Assay: Biodistribution of 99mTc(N)(X)(DTC)+ heterocomplexes in rats
Assay type: in vivo, male Spraque-Dawley rats (SD rats)
Conditions: 1 hr after injection
RESULT_TYPE: Kidney % dose/g (% dose/g)
Only the number, expressed in % dose/g, is required.

// query Specify Kidney % dose/g for CCCN1CC[P+](c2ccccc2)(c2ccccc2)[99Tc-2]2(#[N])([NH]N(C)C(SC)=[S+]2)[P+](c2ccccc2)(c2ccccc2)CC1 [^99mTc(N)(PNP1)(DTC)^+] and stop.
// result 4.779

// query Specify Kidney % dose/g for COCCN1CC[P+](c2ccccc2)(c2ccccc2)[99Tc-2]2(#[N])([NH]N(C)C(SC)=[S+]2)[P+](c2ccccc2)(c2ccccc2)CC1 [^99mTc(N)(PNP2)(DTC)^+] and stop.
// result 6.713

// query Specify Kidney % dose/g for COCCC[P]1(CCCOC)CCN(CCOC)CC[P](CCCOC)(CCCOC)[99Tc+]12(#[N])[NH]N(C)C(SC)=[S]2 [^99mTc(N)(PNP3)(DTC)^+] and stop.
// result 4.127

// query Specify Kidney % dose/g for CSC1=[S+][99Tc-2]2(#[N])([NH]N1C)[P+](c1ccccc1)(c1ccccc1)CCOCC[P+]2(c1ccccc1)c1ccccc1 [^99mTc(N)(POP)(DTC)^+] and stop.
// result 5.054

----------
Assay: Biodistribution of 99mTc(N)(X)(DTC)+ heterocomplexes in rats
Assay type: in vivo, male Spraque-Dawley rats (SD rats)
Conditions: 1 hr after injection
RESULT_TYPE: Blood % dose/g
Show the value, then the unit it is measured in.

compound="CCCN1CC[P+](c2ccccc2)(c2ccccc2)[99Tc-2]2(#[N])([NH]N(C)C(SC)=[S+]2)[P+](c2ccccc2)(c2ccccc2)CC1 [^99mTc(N)(PNP1)(DTC)^+]" value_observed="0.311 ± 0.03 % dose/g"
compound="COCCC[P]1(CCCOC)CCN(CCOC)CC[P](CCCOC)(CCCOC)[99Tc+]12(#[N])[NH]N(C)C(SC)=[S]2 [^99mTc(N)(PNP3)(DTC)^+]" value_observed="0.071 ± 0.00 % dose/g"
compound="COCCN1CC[P+](c2ccccc2)(c2ccccc2)[99Tc-2]2(#[N])([NH]N(C)C(SC)=[S+]2)[P+](c2ccccc2)(c2ccccc2)CC1 [^99mTc(N)(PNP2)(DTC)^+]" value_observed="0.19 ± 0.01 % dose/g"

Shifting focus to the compound that follows.
// query Specify Blood % dose/g for CSC1=[S+][99Tc-2]2(#[N])([NH]N1C)[P+](c1ccccc1)(c1ccccc1)CCOCC[P+]2(c1ccccc1)c1ccccc1 [^99mTc(N)(POP)(DTC)^+] and stop.
// result 0.261 ± 0.14 % dose/g

----------
Parameter: Kidney % dose/g. Scope: all listed entries.
Assay: Biodistribution of 99mTc(N)(X)(DTC)+ heterocomplexes in rats
Type: in vivo, male Spraque-Dawley rats (SD rats)
Settings: 0 min after injection

// below: answered compounds
compound="COCCC[P]1(CCCOC)CCN(CCOC)CC[P](CCCOC)(CCCOC)[99Tc+]12(#[N])[NH]N(C)C(SC)=[S]2 [^99mTc(N)(PNP3)(DTC)^+]" result_type="Kidney % dose/g" value_observed="8.289 ± 0.03 % dose/g"
compound="COCCN1CC[P+](c2ccccc2)(c2ccccc2)[99Tc-2]2(#[N])([NH]N(C)C(SC)=[S+]2)[P+](c2ccccc2)(c2ccccc2)CC1 [^99mTc(N)(PNP2)(DTC)^+]" result_type="Kidney % dose/g" value_observed="5.702 ± 0.732 % dose/g"
compound="CCCN1CC[P+](c2ccccc2)(c2ccccc2)[99Tc-2]2(#[N])([NH]N(C)C(SC)=[S+]2)[P+](c2ccccc2)(c2ccccc2)CC1 [^99mTc(N)(PNP1)(DTC)^+]" result_type="Kidney % dose/g" value_observed="2.66 ± 0.05 % dose/g"

// query Specify Kidney % dose/g for CSC1=[S+][99Tc-2]2(#[N])([NH]N1C)[P+](c1ccccc1)(c1ccccc1)CCOCC[P+]2(c1ccccc1)c1ccccc1 [^99mTc(N)(POP)(DTC)^+] and stop.
// result 3.141 ± 0.35 % dose/g

----------
Parameter: Intestine % dose/g. Scope: all listed entries.
Assay: Biodistribution of 99mTc(N)(X)(DTC)+ heterocomplexes in rats
Type: in vivo, male Spraque-Dawley rats (SD rats)
Details: 4 hr after injection
Only the number, expressed in % dose/g, is required.

compound="COCCC[P]1(CCCOC)CCN(CCOC)CC[P](CCCOC)(CCCOC)[99Tc+]12(#[N])[NH]N(C)C(SC)=[S]2 [^99mTc(N)(PNP3)(DTC)^+]" result_type="Intestine % dose/g" unit_text="% dose/g" value_observed=1.810

// query Specify Intestine % dose/g for CSC1=[S+][99Tc-2]2(#[N])([NH]N1C)[P+](c1ccccc1)(c1ccccc1)CCOCC[P+]2(c1ccccc1)c1ccccc1 [^99mTc(N)(POP)(DTC)^+] and stop.
// result 1.843

// query Specify Intestine % dose/g for COCCN1CC[P+](c2ccccc2)(c2ccccc2)[99Tc-2]2(#[N])([NH]N(C)C(SC)=[S+]2)[P+](c2ccccc2)(c2ccccc2)CC1 [^99mTc(N)(PNP2)(DTC)^+] and stop.
// result 4.054

// query Specify Intestine % dose/g for CCCN1CC[P+](c2ccccc2)(c2ccccc2)[99Tc-2]2(#[N])([NH]N(C)C(SC)=[S+]2)[P+](c2ccccc2)(c2ccccc2)CC1 [^99mTc(N)(PNP1)(DTC)^+] and stop.
// result 0.906

----------
Test: Biodistribution of 99mTc(N)(X)(DTC)+ heterocomplexes in rats
Format: in vivo, male Spraque-Dawley rats (SD rats)
Details: 2 hr after injection
Parameter: Brain % dose/g. Scope: all listed entries.
Only the number, expressed in % dose/g, is required.

// below: answered compounds
compound="CCCN1CC[P+](c2ccccc2)(c2ccccc2)[99Tc-2]2(#[N])([NH]N(C)C(SC)=[S+]2)[P+](c2ccccc2)(c2ccccc2)CC1 [^99mTc(N)(PNP1)(DTC)^+]" unit_text="% dose/g" value_observed=0.025
compound="COCCN1CC[P+](c2ccccc2)(c2ccccc2)[99Tc-2]2(#[N])([NH]N(C)C(SC)=[S+]2)[P+](c2ccccc2)(c2ccccc2)CC1 [^99mTc(N)(PNP2)(DTC)^+]" unit_text="% dose/g" value_observed=0.025
compound="COCCC[P]1(CCCOC)CCN(CCOC)CC[P](CCCOC)(CCCOC)[99Tc+]12(#[N])[NH]N(C)C(SC)=[S]2 [^99mTc(N)(PNP3)(DTC)^+]" unit_text="% dose/g" value_observed=0.009

Shifting focus to the compound that follows.
// query Specify Brain % dose/g for CSC1=[S+][99Tc-2]2(#[N])([NH]N1C)[P+](c1ccccc1)(c1ccccc1)CCOCC[P+]2(c1ccccc1)c1ccccc1 [^99mTc(N)(POP)(DTC)^+] and stop.
// result 0.018
